# Species: Rattus norvegicus
# assay.info: Open TG-GATES - Regimen: Single
# Assay type: toxicity, organism-based, Sprague-Dawley
# Parameters: regimen Single, gender Male, age 6 weeks
# condition.details: in vivo, po, 0 mg/kg, 3 h, tissue Plasma, route gavage, dose level Control
measurement.name: Cl (meq/L)
Reply numerically in meq/L, unit not repeated.

// solved cases for Cl follow
Exercise: Item COc1ccc(Cl)cc1C(=O)NCCc1ccc(S(=O)(=O)NC(=O)NC2CCCCC2)cc1 [GLYBURIDE] has what recorded Cl?
Key: 104

Exercise: Item C=CCO has what recorded Cl?
Key: 102

Exercise: Item S=C=Nc1cccc2ccccc12 [1-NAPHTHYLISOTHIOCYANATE] has what recorded Cl?
Key: 103.4

Exercise: Item Cn1cnc([N+](=O)[O-])c1Sc1ncnc2nc[nH]c12 has what recorded Cl?
Key: 107

Exercise: Item CS(=O)(=O)Nc1ccc([N+](=O)[O-])cc1Oc1ccccc1 [NIMESULIDE] has what recorded Cl?
Key: 105.4

Exercise: Item COc1ccc(O)c(C(C)(C)C)c1.COc1ccc(O)cc1C(C)(C)C [BUTYLATED HYDROXYANISOLE] has what recorded Cl?
Key: 106.4

Exercise: Item O=C1CN(/N=C/c2ccc(-c3ccc([N+](=O)[O-])cc3)o2)C(O)=N1 has what recorded Cl?
Key: 103.8

Read the next record carefully.
Exercise: Item Cc1cccc(Nc2cc(Cl)nc(SCC(=O)O)n2)c1C has what recorded Cl?
Key: 104.8
